assay: RP, Waters CORTECS UPLC C18, 100 × 2.1 mm, 1.6 µm, 40 °C, 0.4 mL/min, estimated dead time 0.55 min; A: water + 0.1% formic acid, pH 3; B: acetonitrile + 0.1% formic acid, pH 3; gradient (min/%B) 0/5 1.12/5 6.41/99.5 10.01/99.5; settings: stereoisomer not certain
outcome measure: LC retention time

compound	result
O=C(O)CCCc1c[nH]c2ccccc12	3.94 min
O=C(O)CCCCC(=O)O [ADIPATE]	2.47 min
COc1cc(OC)nc(NC(=O)NS(=O)(=O)N(C)S(C)(=O)=O)n1	4.16 min
Cc1cc2nc3c(=O)[nH]c(=O)nc-3n(CC(O)C(O)C(O)CO)c2cc1C (stereo not given)	2.67 min
COC(=O)N(C(=O)N1COC2(C(=O)OC)Cc3cc(Cl)ccc3C2=N1)c1ccc(OC(F)(F)F)cc1 (stereo not given)	5.75 min
O=C(NC(=O)c1c(F)cccc1F)Nc1cc(Cl)c(F)c(Cl)c1F	5.7 min
CCCCCC(=O)OC(CC(=O)[O-])C[N+](C)(C)C (stereo not given)	3.05 min
CNC(=O)Oc1cccc2ccccc12	3.14 min
NC(=O)[C@@H](N)Cc1c[nH]c2ccccc12 [L-TRYPTOPHANAMIDE]	1.79 min
CNC(=O)Oc1ccc(N(C)C)c(C)c1	1.6 min
CC(CCC(=O)NCC(=O)O)C1CCC2C3CC(O)C4CC(O)CCC4(C)C3CCC12C (stereo not given)	4.08 min
CC(C)Oc1cc(-n2nc(C(C)(C)C)oc2=O)c(Cl)cc1Cl	6.14 min
CCCCCCCC[n+]1cccc(S(=O)(=O)[O-])c1	3.67 min
NC(Cc1ccccc1)C(=O)O (stereo not given)	1.25 min
C=CCCCCCCCC(=O)O	4.62 min
N#CN=C1SCCN1Cc1ccc(Cl)nc1	3.6 min
O=C(NC(=O)c1c(F)cccc1F)Nc1cc(Cl)c(OC(F)(F)C(F)C(F)(F)F)cc1Cl (stereo not given)	5.91 min
O=C(O)c1cc(=O)c2ccccc2[nH]1 [KYNURENATE]	2.35 min
c1coc(-c2nc3ccccc3[nH]2)c1	2.63 min
CCCCCCC=CC#CCCCCCCCC(=O)O	6.4 min

---

Let's look at some compounds and their measured LC retention time.
experiment: RP, Waters CORTECS UPLC C18, 100 × 2.1 mm, 1.6 µm, 40 °C, 0.4 mL/min, estimated dead time 0.55 min; A: water + 0.1% formic acid, pH 3; B: acetonitrile + 0.1% formic acid, pH 3; gradient (min/%B) 0/5 1.12/5 6.41/99.5 10.01/99.5; settings: stereoisomer not certain

compound	LC retention time
O=C(O)c1cccc(O)c1O [2,3-DIHYDROXYBENZOATE]	1.66 min
CCN(CC)C(=O)c1cccc(C)c1	4.37 min
CNCCc1c[nH]c2ccccc12	2.54 min
CC12CCC(=O)C=C1CCC1C2C(=O)CC2(C)C1CCC2(O)C(=O)CO (stereo not given)	3.69 min
COC(=O)Nc1nc2ccccc2[nH]1	2.38 min
C#CC(C)(C)NC(=O)c1cc(Cl)cc(Cl)c1 [Propyzamide]	5.01 min
CC(CCC(=O)O)C1CCC2C3C(O)CC4CC(O)CCC4(C)C3CCC12C (stereo not given)	5.12 min
NCCc1c[nH]c2ccccc12	2.43 min
CCCCC(=O)OC(CC(=O)[O-])C[N+](C)(C)C (stereo not given)	2.66 min
OC(c1ccc(Cl)cc1)(c1cncnc1)c1ccccc1Cl (stereo not given)	4.86 min

---

assay: RP, Waters CORTECS UPLC C18, 100 × 2.1 mm, 1.6 µm, 40 °C, 0.4 mL/min, estimated dead time 0.55 min; A: water + 0.1% formic acid, pH 3; B: acetonitrile + 0.1% formic acid, pH 3; gradient (min/%B) 0/5 1.12/5 6.41/99.5 10.01/99.5; settings: stereoisomer not certain

compound	LC retention time / min
CCCCCCCCCCCCCCCCCCC[n+]1cccc(S(=O)(=O)[O-])c1	6.81
CCCCCCCCCC(O)CC(=O)OC(CC(=O)[O-])C[N+](C)(C)C [[(3R)-3-Hydroxydodecanoyl]-L-carnitine]	4.2
Cc1cnc2c(C(=O)O)c(Cl)ccc2c1	3.17
Nc1nc2ncc(CNc3ccc(C(=O)NC(CCC(=O)O)C(=O)O)cc3)nc2c(=O)[nH]1 (stereo not given) [FOLATE]	2.38
CCCCCCCCC[n+]1cccc(S(=O)(=O)[O-])c1	3.99

---

test: RP, Waters CORTECS UPLC C18, 100 × 2.1 mm, 1.6 µm, 40 °C, 0.4 mL/min, estimated dead time 0.55 min; A: water + 0.1% formic acid, pH 3; B: acetonitrile + 0.1% formic acid, pH 3; gradient (min/%B) 0/5 1.12/5 6.41/99.5 10.01/99.5; conditions: stereoisomer not certain
LC retention time values, listed per item
outcome measure: LC retention time (min)

molecule	output unit	numeric readout
CCOC(=O)Cc1c[nH]c2ccccc12 [ETHYL 3-INDOLEACETATE]	min	4.49
CC(C)N(C(=O)COc1nnc(C(F)(F)F)s1)c1ccc(F)cc1 [Flufenacet]	min	5.22
Cc1ccn2nc(S(=O)(=O)Nc3c(F)cccc3F)nc2n1 [Flumetsulam]	min	3.43
NCCc1ccc(O)cc1 [TYRAMINE]	min	0.755
CCOc1ccc(NC(=O)OC(C)C)cc1OCC [Diethofencarb]	min	4.83

---

experiment: RP, Waters CORTECS UPLC C18, 100 × 2.1 mm, 1.6 µm, 40 °C, 0.4 mL/min, estimated dead time 0.55 min; A: water + 0.1% formic acid, pH 3; B: acetonitrile + 0.1% formic acid, pH 3; gradient (min/%B) 0/5 1.12/5 6.41/99.5 10.01/99.5; conditions: stereoisomer not certain
Recorded LC retention time determines the group label, using LOW = under 3 min, MID = from 3 min up to 5 min, HIGH = 5 min and over

molecule	category label
COC(=O)C(C)N(C(=O)Cc1ccccc1)c1c(C)cccc1C (stereo not given)	HIGH
N[C@@H](Cc1cc(I)c(Oc2ccc(O)cc2)c(I)c1)C(=O)O	MID
COC(=O)c1ccc(CNS(C)(=O)=O)cc1S(=O)(=O)NC(=O)Nc1nc(OC)cc(OC)n1	MID
COP(N)(=S)Oc1ccccc1C(=O)OC(C)C (stereo not given)	LOW
COCCCNc1nc(NC(C)C)nc(SC)n1	MID
CCS(=O)(=O)c1cccnc1S(=O)(=O)NC(=O)Nc1nc(OC)cc(OC)n1	MID
COC(=O)c1ccccc1S(=O)(=O)NC(=O)Nc1nc(C)nc(OC)n1	MID
CCOP(=S)(OCC)Oc1nc(Cl)c(Cl)cc1Cl	HIGH
CCOC(=O)C(Cl)Cc1cc(-n2nc(C)n(C(F)F)c2=O)c(F)cc1Cl (stereo not given)	HIGH
O=C(O)c1ccc(C(=O)O)o1	LOW
CC(C)CCC[C@@H](C)[C@H]1CC[C@H]2[C@@H]3[C@H](O)CC4=CC(=O)CC[C@]4(C)[C@H]3CC[C@]12C [7α-Hydroxy-4-cholesten-3-one]	HIGH
C[S+](CCC(N)C(=O)[O-])CC1OC(n2cnc3c(N)ncnc32)C(O)C1O (stereo not given)	HIGH
CCCCCCCCCCCCCCCCC[n+]1cccc(S(=O)(=O)[O-])c1	HIGH
CC(C)(C)C(O)C(Oc1ccc(Cl)cc1)n1cncn1 (stereo not given)	MID
O=C(O)c1c[nH]c2ccccc12	MID
C=CCOC(Cn1ccnc1)c1ccc(Cl)cc1Cl (stereo not given)	MID
CCOP(=S)(OCC)SCn1c(=O)oc2cc(Cl)ccc21	HIGH
CON=C(C(=O)OC)c1ccccc1CON=C(C)c1cccc(C(F)(F)F)c1	HIGH
O=[N+]([O-])NC1=NCCN1Cc1ccc(Cl)nc1	MID
Clc1ccccc1-c1nnc(-c2ccccc2Cl)nn1	HIGH
CCCCCC[n+]1cccc(S(=O)(=O)[O-])c1	LOW
O=C(O)CCc1c[nH]c2ccccc12	MID
CC1(C)CON(Cc2ccccc2Cl)C1=O	MID
CON=C1CC2(CC3CC(CC=C(C)CC(C)C=CC=C4COC5C(O)C(C)=CC(C(=O)O3)C45O)O2)OC(C(C)=CC(C)C)C1C (stereo not given)	HIGH
Cc1cc2nc3[nH]c(=O)[nH]c(=O)c3nc2cc1C	MID
CSc1nnc(C(C)(C)C)c(=O)n1N	MID
CC1NC(=O)NC1CCCCCC(=O)O (stereo not given)	LOW
O=C(O)CNC(=O)c1ccccc1	LOW
CC(C)=CC(=O)NCC(=O)O	LOW
CCCCC[n+]1cccc(S(=O)(=O)[O-])c1	LOW
C[C@H](CCC(=O)O)[C@H]1CC[C@H]2[C@@H]3CC[C@@H]4CC(=O)CC[C@]4(C)[C@H]3CC[C@]12C	HIGH
O=C(O)c1ccnc2ccccc12 [4-QUINOLINECARBOXYLATE]	LOW

Origin of the recorded values: the RepoRT retention time repository
